Measured % Activity of individual entries
Biological target: GST-Bfl-1 (Homo sapiens)
Construct: lacking their C-terminal transmembrane domains (about the last 20 amino acids) (“ΔTM”); made in house; host or cells: XL-1 Blue E. coli, pGEX 4T-1
Sequence (Q16548 1-155 limits assumed): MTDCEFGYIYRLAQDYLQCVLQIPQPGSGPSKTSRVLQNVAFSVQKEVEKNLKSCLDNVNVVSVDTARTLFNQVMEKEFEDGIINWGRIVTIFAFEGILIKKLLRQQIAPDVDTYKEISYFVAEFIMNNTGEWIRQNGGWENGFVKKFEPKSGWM
Test: Bfl-1/FITC-Bid BH3 competitive fluorescence polarization assay
Type: binding
Conditions: primary HTS hits, MLSCN library (PubChem SIDs), Table 5B
The reply should be a number in %, with the unit left off.

CCc1ccc(NC(=O)c2noc3c2CCC3)cc1    68.1
CC(=O)c1c(COC(=O)c2ccco2)nc2ccccc2[n+]1[O-]    68.3
O=C(CSc1nnc(-c2ccco2)c(-c2ccco2)n1)Nc1ccccc1    71.5

API: the following record is the query input.
I would be grateful if you could share the reported % Activity for CN(C)c1cccc(C(=O)OCc2cc(=O)oc3cc(O)ccc23)c1 .
71.7

====

Target: GST-Bfl-1 (Homo sapiens, UniProt Q16548)
Construct: lacking their C-terminal transmembrane domains (about the last 20 amino acids) (“ΔTM”); made in house; host or cells: XL-1 Blue E. coli, pGEX 4T-1
Sequence (Q16548 1-155 limits assumed): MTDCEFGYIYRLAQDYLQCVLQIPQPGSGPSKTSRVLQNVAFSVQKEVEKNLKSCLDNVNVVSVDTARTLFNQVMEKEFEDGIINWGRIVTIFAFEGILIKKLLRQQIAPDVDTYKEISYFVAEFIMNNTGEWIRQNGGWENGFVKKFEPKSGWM
Test: Bfl-1/FITC-Bid BH3 competitive fluorescence polarization assay
Assay type: binding
Settings: primary HTS hits, MLSCN library (PubChem SIDs), Table 5B
Using % Activity as the sorting value, the categories are b0 (below 60%), b1 (60% to below 70%), b2 (70% or more)

COCCn1c(SCC(=O)Nc2ncc(Cl)c(C)c2Cl)nc2ccccc21    b1

Which band does C=CCn1c(SCc2cc(=O)n3ccsc3n2)nnc1C1CCCCC1 fall in?
b0

Which band does CCOC(=O)c1ccc2c(c1)C1C=CCC1C(C(=O)O)N2 (stereo not drawn) fall in?
b2

Which band does Oc1ccc(Nc2nc(N3CCCC3)c3ccccc3n2)cc1 fall in?
b2

====

target: GST-Bfl-1 (Homo sapiens, UniProt Q16548); construct: lacking their C-terminal transmembrane domains (about the last 20 amino acids) (“ΔTM”); made in house; host or cells: XL-1 Blue E. coli, pGEX 4T-1; test: Bfl-1/FITC-Bid BH3 competitive fluorescence polarization assay; format: binding; settings: primary HTS hits, MLSCN library (PubChem SIDs), Table 5B
Recorded metric: % Activity (%)
The reply should be a number in %, with the unit left off.

Oc1ccc(C2=Nn3c(nnc3-c3ccco3)SC2)cc1O [Compound 17401638]    56.6
COc1ccc(S(=O)(=O)N2CCCC2C(=O)Nc2nnc(-c3cccnc3)s2)cc1 (stereo not shown) [Compound 3713012]    50.9
O=c1c([N+](=O)[O-])cc(C(F)(F)F)cn1Cc1cccc(Cl)c1 [Compound 17402915]    89.8

API: the following record is the query input.
Lookup: % Activity / GST-Bfl-1 (Homo sapiens, UniProt Q16548) / c1ccc(CSc2nnc(-c3ccco3)c(-c3ccco3)n2)cc1 [Compound 4260465]
93.8
